Where do these numbers come from? They come from the RNAGym collection of RNA variant scans (doi:10.1126/science.aae0568).

B1: tRNA (parent)
chain: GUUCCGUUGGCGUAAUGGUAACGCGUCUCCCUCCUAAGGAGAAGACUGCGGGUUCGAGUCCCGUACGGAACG

- Variants of: B1
- Assay explanation: yeast fitness relative to wild type (ratio to wild type); higher = fitter; tRNA-Arg(CCU), competitive growth, 37 C, YPD
Variants at the floor of the assay were thinned out.
Value type: yeast fitness
The reply should be a number, written without any unit.

// known answers, use as guide
[[record]]
mutant_code = "C34A U53C"
value = 0.559

[[record]]
mutant_code = "A36U A57G"
value = 0.582

[[record]]
mutant_code = "U13A C31U C46A"
value = 0.665

[[record]]
mutant_code = "U16C C46G C49U"
value = 0.731


Ask | Give yeast fitness for the following variant: U32G C46U A69U
Reply | 0.602

Ask | Give yeast fitness for the following variant: C30U A43C G67U
Reply | 0.571

Ask | Give yeast fitness for the following variant: G10A C24G A40G C46G
Reply | 0.556
